# target of assay: FXIII (Homo sapiens)
# Sequence (P00488 1-732): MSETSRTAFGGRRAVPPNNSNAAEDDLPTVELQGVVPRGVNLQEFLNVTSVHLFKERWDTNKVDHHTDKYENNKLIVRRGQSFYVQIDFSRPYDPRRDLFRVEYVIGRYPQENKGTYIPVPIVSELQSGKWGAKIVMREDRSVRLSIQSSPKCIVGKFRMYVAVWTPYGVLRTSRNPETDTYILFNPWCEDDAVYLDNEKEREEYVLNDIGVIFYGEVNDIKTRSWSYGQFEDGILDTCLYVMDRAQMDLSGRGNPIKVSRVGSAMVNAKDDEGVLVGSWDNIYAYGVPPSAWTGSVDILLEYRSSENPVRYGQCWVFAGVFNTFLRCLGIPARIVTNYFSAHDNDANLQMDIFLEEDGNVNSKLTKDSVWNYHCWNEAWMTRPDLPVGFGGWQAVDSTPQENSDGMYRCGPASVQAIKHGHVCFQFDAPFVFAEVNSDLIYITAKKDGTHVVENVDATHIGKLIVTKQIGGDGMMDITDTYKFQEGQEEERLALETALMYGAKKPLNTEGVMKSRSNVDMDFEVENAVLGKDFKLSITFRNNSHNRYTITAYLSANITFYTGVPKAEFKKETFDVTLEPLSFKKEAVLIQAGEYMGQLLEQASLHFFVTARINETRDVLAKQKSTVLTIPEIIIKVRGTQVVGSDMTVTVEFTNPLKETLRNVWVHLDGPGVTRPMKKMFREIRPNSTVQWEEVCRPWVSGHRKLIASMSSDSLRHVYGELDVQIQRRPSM
# measurement notes: Transglutaminase inhibition, IC50 at FXIII
# Format: biochemical
# test parameters: Table 2
Measured IC50, listed per entry for reference.

COC(=O)[C@H](CC(C)C)NC(=O)[C@@H]1CCCN1C(=O)[C@H](CCC(N)=O)NC(=O)[C@H](CC/C=C/S(=O)(=O)N(C)C)NC(=O)OCc1ccccc1 = > 100 µM
COC(=O)[C@H](CC(C)C)NC(=O)[C@@H]1CCCN1C(=O)[C@H](CCC(N)=O)NC(=O)[C@H](CC/C=C/S(C)(=O)=O)NC(=O)OCc1ccccc1 = > 100 µM

Identify measured IC50 corresponding to CC(C)CC(NC(=O)C1CCCCN1C(=O)C(Cc1ccccc1)NC(=O)C(CCC=CC(=O)OCc1ccccc1)NC(=O)OCc1ccccc1)C(N)=O (stereo not drawn) > 100 µM

====

Measured IC50, listed per entry for reference.
# target of assay: FXIII (Homo sapiens)
# Sequence (P00488 1-732): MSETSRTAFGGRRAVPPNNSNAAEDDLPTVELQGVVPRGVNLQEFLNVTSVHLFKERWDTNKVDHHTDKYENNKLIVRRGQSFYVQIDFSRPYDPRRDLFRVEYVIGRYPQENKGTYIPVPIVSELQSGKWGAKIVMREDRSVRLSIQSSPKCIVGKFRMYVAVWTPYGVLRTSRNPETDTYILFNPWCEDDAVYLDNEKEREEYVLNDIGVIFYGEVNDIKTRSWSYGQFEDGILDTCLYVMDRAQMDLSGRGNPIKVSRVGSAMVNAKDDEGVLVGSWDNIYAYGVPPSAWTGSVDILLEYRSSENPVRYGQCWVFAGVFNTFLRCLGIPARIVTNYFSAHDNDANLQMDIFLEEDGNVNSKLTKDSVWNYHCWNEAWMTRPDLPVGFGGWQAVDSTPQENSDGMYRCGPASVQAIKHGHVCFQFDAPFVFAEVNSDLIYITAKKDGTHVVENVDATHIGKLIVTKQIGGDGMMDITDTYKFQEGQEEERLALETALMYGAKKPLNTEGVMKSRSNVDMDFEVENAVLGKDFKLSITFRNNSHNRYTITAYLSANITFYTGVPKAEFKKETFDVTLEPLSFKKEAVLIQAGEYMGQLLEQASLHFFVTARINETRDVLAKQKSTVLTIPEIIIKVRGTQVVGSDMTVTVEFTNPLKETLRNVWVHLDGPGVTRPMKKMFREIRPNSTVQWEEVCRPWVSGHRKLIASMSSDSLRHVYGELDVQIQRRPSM
# measurement notes: Transglutaminase inhibition, IC50 at FXIII
# Format: biochemical
# test parameters: Table 1
Where a SMILES comes first, the peptide text is derived from it. [ ]: non-standard residue; d: D form. The star is where a group is joined. Nle(5E-ene,6-CO2Et) = CCOC(=O)/C=C/CC[C@H](N)C(=O)O; Cbz = O=C(OCc1ccccc1)*

Identify measured IC50 corresponding to CCOC(=O)/C=C/CC[C@H](NC(=O)OCc1ccccc1)C(=O)N[C@H](C(=O)N1CCC[C@H]1C(=O)N[C@@H](CC(C)C)C(=O)OC)C(C)C [Compound 1] (Cbz-[Nle(5E-ene,6-CO2Et)]VPL-OMe) > 50 µM
